# experimental-details: HUVEC growth inhibition – cell-based, human, primary screen (AID 575);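 also: 100% = median of untreated cell wells with 0.1% DMSO on each plate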
# assay-context: HUVEC proliferation, CellTiter-Glo luminescence, 72 h; at 10 µM; active compounds read low
measurement-kind: viability (%)
Respond numerically; units are % and should not be typed.

Recorded viability, per entry:
[[record]]
compound = "CCOc1cc2oc(=O)c3c(c2cc1Cl)CCC3"
value_unit = "%"
measured = 102

[[record]]
compound = "Cc1cc(C)nc(N2CCC(C(=O)Nc3ccc4c(c3)CCC4)CC2)n1"
value_unit = "%"
measured = 54.9

[[record]]
compound = "C=CCN(CC=C)C(=O)CN1C(=O)c2ccccc2C1=O"
value_unit = "%"
measured = 97.5

[[record]]
compound = "S=c1[nH]nc(Cc2ccccc2)n1Cc1ccco1"
value_unit = "%"
measured = 108

[[record]]
compound = "COc1ccc(NC(=O)N2CCC(c3nc(-c4cccs4)no3)CC2)cc1"
value_unit = "%"
measured = 98.3


Consider the record given below.
Query block: Which viability value is on record for `CC(C)CNC(=O)c1ccccc1NC(=O)CN(c1ccc2c(c1)OCCO2)S(C)(=O)=O` ?
Result block: 96.8

====

# experimental-details: 384-well plate pilot, post-Golgi transport modulator project, inhibition of yeast transport mutant growth (AID 636)
# assay-context: absorbance 615 nm, about 18 h, active compounds read high
Known inhibition of a selection of molecules
Respond numerically; units are % and should not be typed.

Recorded inhibition, per entry:
[[record]]
molecule = "O=C1C2CC=C(Cl)CC2C(=O)N1CNc1ccccn1 (stereo unspecified)"
value_unit = "%"
measured = -2.05

[[record]]
molecule = "CCOC(=O)c1ccc(N=Cc2nc(-c3ccccc3)oc2OC(C)=O)cc1"
value_unit = "%"
measured = -4.47

[[record]]
molecule = "Cc1ccc(N(CC(O)CN2CCCC2)S(=O)(=O)c2ccc(C)cc2)cc1 (stereo unspecified)"
value_unit = "%"
measured = -5.21


Query block: Which inhibition value is on record for `O=C(CCN1CCOCC1)Nc1ccc2c(c1)CCC2` ?
Result block: -5.26

Query block: Which inhibition value is on record for `O=S(=O)(c1ccc2c(c1)OCCO2)N1CCN(Cc2ccc3c(c2)OCO3)CC1` ?
Result block: -3.24

Query block: Which inhibition value is on record for `O=C(CCCn1c(=O)c2sccc2n(CC(=O)NCc2ccco2)c1=O)NCc1ccco1` ?
Result block: -2.86

====

Known viability of a selection of compounds
# experimental-details: HUVEC growth inhibition – cell-based, human, primary screen (AID 575);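 also: 100% = median of untreated cell wells with 0.1% DMSO on each plate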
# assay-context: HUVEC proliferation, CellTiter-Glo luminescence, 72 h; at 10 µM; active compounds read low
Respond numerically; units are % and should not be typed.

[[record]]
compound = "COCCNC(=O)C(c1ccc(C)o1)N(C(=O)c1snc(C(N)=O)c1N)c1ccc(C)cc1 (stereo unspecified)"
measurement_kind = "viability"
value_unit = "%"
measured = 87.5

[[record]]
compound = "CCOc1ccccc1-c1nc(-c2ccc(C)nc2OC)no1"
measurement_kind = "viability"
value_unit = "%"
measured = 95.9


Query block: Which viability value is on record for `O=C(Cn1nnc2c(cnn2-c2ccc(F)cc2)c1=O)c1ccccc1F` ?
Result block: 75.6

Query block: Which viability value is on record for `CCOC(=O)CSc1nn(C)c(=S)s1` ?
Result block: 73.2

Query block: Which viability value is on record for Cc1ccc(SC(C)c2nc(-c3ccccc3)no2)cc1 (stereo unspecified) ?
Result block: 114

Query block: Which viability value is on record for `Cc1ccc(N2CCN(C(=O)c3ccccc3)CC2)c(C)c1` ?
Result block: 114

Query block: Which viability value is on record for `CCCCc1c(O)nc(N2CCN(Cc3ccccc3)CC2)[nH]c1=O` ?
Result block: 98.8

Query block: Which viability value is on record for `COCCn1c(C)cc(C(=O)COC(=O)c2ccc(N3CCCC3=O)cc2)c1C` ?
Result block: 88.4

Query block: Which viability value is on record for O=C(Nc1ncc2c(n1)CC(c1ccccc1)CC2=O)c1ccco1 (stereo unspecified) ?
Result block: 98.3

Query block: Which viability value is on record for `CCCCCn1c2nc3ccccc3nc2c2c(=O)n(CC(C)C)cnc21` ?
Result block: 103

Query block: Which viability value is on record for `CCOC(=O)C1CCN(c2cc(C)nc3cc(-c4cccc(F)c4)nn23)CC1` ?
Result block: 105

====

Known viability of a selection of molecules
# experimental-details: growth suppression of PTEN-deleted HCT116, pilot screen, cell-based, HCT116 clonal line, CellTiter-Glo (AID 824);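 also: 0% = 20 µM Hyamine control and 100% = vehicle cell control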
# assay-context: 60 h, at 10 µM, active compounds read low
Records with an inconclusive call do not appear.
Respond numerically; units are % and should not be typed.

Recorded viability, per entry:
[[record]]
molecule = "O=C(Oc1cc2oc(=O)c3c(c2cc1Cl)CCCC3)c1ccco1"
value_unit = "%"
measured = 104

[[record]]
molecule = "Cn1cccc1Cc1nnc(SCC(=O)N2CCOCC2)n1-c1ccc(F)cc1"
value_unit = "%"
measured = 94.3

[[record]]
molecule = "CC(C)COC(=O)C1C2C=CC3(CN(C(C)c4ccc(Br)cc4)C(=O)C13)O2 (configuration not stated)"
value_unit = "%"
measured = 95.8

[[record]]
molecule = "Clc1ccc(C2Nc3ccccc3-n3cccc32)cc1 (configuration not stated)"
value_unit = "%"
measured = 81.3

[[record]]
molecule = "CC12COC3(C(=O)Nc4ccc(Cl)cn4)CC1CCC32C (configuration not stated)"
value_unit = "%"
measured = 85.7

[[record]]
molecule = "CCOC(=O)c1ccccc1NC1c2ccccc2C(=O)N1C1CCN(C(=O)OCC)CC1 (configuration not stated)"
value_unit = "%"
measured = 46.2


Query block: Which viability value is on record for `CCOc1ccccc1N1C(=O)c2ccc(C(=O)Nc3cccnc3)cc2C1=O` ?
Result block: 98.7

====

# experimental-details: HUVEC growth inhibition – cell-based, human, primary screen (AID 575);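 also: 100% = median of untreated cell wells with 0.1% DMSO on each plate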
# assay-context: HUVEC proliferation, CellTiter-Glo luminescence, 72 h; at 10 µM; active compounds read low
measurement-kind: viability (%)
Respond numerically; units are % and should not be typed.

[[record]]
compound = "O=C(Nc1ccccc1Cl)c1c(F)c(F)c(F)c(F)c1F"
measured = 106

[[record]]
compound = "Nc1cc(=O)[nH]c(SCC(=O)Nc2ccc(Br)cc2)n1"
measured = 101

[[record]]
compound = "O=C(c1ccc(CNS(=O)(=O)c2cccc(C(F)(F)F)c2)cc1)N1CCOCC1"
measured = 102


Query block: Which viability value is on record for CCN1C(=O)C2(C(C#N)=C(N)Oc3n[nH]c(C(C)C)c32)c2ccccc21 (stereo unspecified) ?
Result block: 103

Query block: Which viability value is on record for `N#CC1=C(N)N(c2ccc(Oc3ccccc3)cc2)C(=O)C1` ?
Result block: 106

Query block: Which viability value is on record for `Cc1nc(NC2=NCN(CCc3ccccc3)CN2)nc2c(C)cccc12` ?
Result block: 81.9

====

# experimental-details: 384-well plate pilot, post-Golgi transport modulator project, inhibition of yeast transport mutant growth (AID 636)
# assay-context: absorbance 615 nm, about 18 h, active compounds read high
measurement-kind: inhibition (%)
Respond numerically; units are % and should not be typed.

[[record]]
compound = "Cc1ccc(C)c(Cn2c(=O)n(CCC(=O)NCc3ccco3)c(=O)c3sccc32)c1"
value_unit = "%"
measured = -2.86

[[record]]
compound = "CCN(CC)CCCN1C(=O)C(O)=C(C(C)=O)C1c1cccc(OC)c1 (stereo not given)"
value_unit = "%"
measured = -3.51

[[record]]
compound = "COC(=O)c1ccccc1NC(=O)COc1ccc(S(=O)(=O)N2CCCC2)cc1C"
value_unit = "%"
measured = -3.03

[[record]]
compound = "CCCCC[C@H](O)/C=C/[C@@H]1[C@@H](CCCCCCC(=O)O)[C@@H](O)C[C@H]1O"
value_unit = "%"
measured = 0.26


Query block: Which inhibition value is on record for `COc1ccccc1N(CN1CCCC1=O)C(=O)c1c(F)cccc1Cl` ?
Result block: -5.2

====

# experimental-details: 384-well plate pilot, post-Golgi transport modulator project, inhibition of yeast transport mutant growth (AID 636)
# assay-context: absorbance 615 nm, about 18 h, active compounds read high
Active and inactive are the calls of the source. No stated cut-off is given here; in the data, active means inhibition above about 31%; inactive means the rest. Peptide text beside a SMILES is read from it. * marks the point of attachment. Boc = CC(C)(C)OC(=O)*
Known inhibition of a selection of molecules

[[record]]
molecule = "Cc1ccc(CCNC(=O)C2CCCN2S(=O)(=O)c2ccc3c(c2)CCC(=O)N3)cc1 (stereo not given)"
measured = "-1.33% (inactive)"

[[record]]
molecule = "C=CCn1cnc2c(c1=O)c1nc3ccccc3nc1n2-c1ccc(C)cc1"
measured = "-5.48% (inactive)"

[[record]]
molecule = "Cc1nc(NCc2ccccn2)c2ccccc2n1"
measured = "2.08% (inactive)"

[[record]]
molecule = "CSCCC(NC(=O)OC(C)(C)C)C(=O)NC(CC(C)C)C(N)=O (stereo not drawn) (Boc-Met-Leu-NH2; configuration not given here)"
measured = "0.39% (inactive)"

[[record]]
molecule = "NC(N)=NC(N)=NCCc1ccccc1"
measured = "0.65% (inactive)"


Query block: Which inhibition value is on record for `O=C(CN1C(=O)COc2ccccc21)N(Cc1cccnc1)Cc1ccccc1F` ?
Result block: -2.97% (inactive)

Query block: Which inhibition value is on record for `Cc1ccc(S(=O)(=O)N(C)c2ccc(OCC(=O)OCc3c(C)noc3C)cc2)cc1` ?
Result block: -1.71% (inactive)

Query block: Which inhibition value is on record for COc1ccc2cc3cc(C(=O)NCC4CCCO4)oc3nc2c1 (stereo not given) ?
Result block: 1.69% (inactive)

Query block: Which inhibition value is on record for CN1CCN(CC#CCC(O)(c2ccccc2)C2CCCC2)CC1 (stereo not given) ?
Result block: -6.4% (inactive)

Query block: Which inhibition value is on record for O=C(CN1C(=O)CC(c2ccco2)Sc2ccccc21)Nc1ccc2c(c1)OCCO2 (stereo not given) ?
Result block: -2.76% (inactive)

Query block: Which inhibition value is on record for CN=C(C)C1=C(O)C(C(=O)OC)C(C)(C)CC1=O (stereo not given) ?
Result block: -1.43% (inactive)

Query block: Which inhibition value is on record for `O=C(NCc1ccc(F)cc1)c1cc(-c2ccco2)on1` ?
Result block: -2.89% (inactive)

Query block: Which inhibition value is on record for `Cc1cc(=O)oc2ccc(OCC(=O)N(Cc3ccc(F)cc3)Cc3ccco3)cc12` ?
Result block: -2.47% (inactive)
